# test target: EGFR (Homo sapiens (Human))
# Sequence (P00533 25-1210): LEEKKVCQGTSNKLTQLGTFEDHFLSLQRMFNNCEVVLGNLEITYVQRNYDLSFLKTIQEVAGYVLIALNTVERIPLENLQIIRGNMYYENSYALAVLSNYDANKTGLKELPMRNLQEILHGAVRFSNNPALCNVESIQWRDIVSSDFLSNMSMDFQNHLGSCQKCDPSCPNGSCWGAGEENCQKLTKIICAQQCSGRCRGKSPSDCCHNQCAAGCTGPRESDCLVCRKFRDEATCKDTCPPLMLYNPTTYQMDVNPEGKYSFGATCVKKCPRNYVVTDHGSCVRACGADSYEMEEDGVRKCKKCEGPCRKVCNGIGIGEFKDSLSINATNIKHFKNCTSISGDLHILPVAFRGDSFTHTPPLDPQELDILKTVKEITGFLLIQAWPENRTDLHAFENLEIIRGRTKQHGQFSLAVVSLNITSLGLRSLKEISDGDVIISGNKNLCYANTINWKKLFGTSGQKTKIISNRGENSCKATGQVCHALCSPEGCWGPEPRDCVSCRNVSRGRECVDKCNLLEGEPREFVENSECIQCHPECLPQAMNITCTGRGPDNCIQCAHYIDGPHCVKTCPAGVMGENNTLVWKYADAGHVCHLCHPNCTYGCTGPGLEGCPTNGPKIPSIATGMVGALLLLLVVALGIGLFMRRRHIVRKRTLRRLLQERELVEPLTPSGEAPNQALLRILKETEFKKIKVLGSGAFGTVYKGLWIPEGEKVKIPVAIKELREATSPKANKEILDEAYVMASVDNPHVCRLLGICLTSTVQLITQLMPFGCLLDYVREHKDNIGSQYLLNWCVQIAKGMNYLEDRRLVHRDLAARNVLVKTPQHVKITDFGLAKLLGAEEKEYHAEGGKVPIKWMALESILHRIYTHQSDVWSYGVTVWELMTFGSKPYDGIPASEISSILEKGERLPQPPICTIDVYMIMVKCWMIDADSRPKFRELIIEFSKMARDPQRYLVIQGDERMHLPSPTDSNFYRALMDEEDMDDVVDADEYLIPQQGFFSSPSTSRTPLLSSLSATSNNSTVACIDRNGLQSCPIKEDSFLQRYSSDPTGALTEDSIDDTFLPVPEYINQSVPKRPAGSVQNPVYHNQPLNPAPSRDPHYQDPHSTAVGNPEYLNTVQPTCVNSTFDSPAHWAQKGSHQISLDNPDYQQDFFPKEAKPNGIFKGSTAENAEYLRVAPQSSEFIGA
# protocol details: ErbB enzyme assay (CisBio HTRF KinEASE-TK), Assay 3
# Type: biochemical
# Procedure: Compound potencies were determined using CisBio's HTRF Kinease-TK assay technology. […] After a 1-hour incubation at 22° C., the extent of reaction was determined using a PerkinElmer EnVision multimode plate reader via HTRF dual wavelength detection, and the percent of control (POC) was calculated using a ratiometric emission factor. One hundred POC was determined using DMSO only samples (no compound present), and 0 POC was determined using pre-quenched control reactions. […]
Define the label as rule met when IC50 is strictly less than 3 µM and as rule not met in all remaining cases.

QUERY: Strictly below 3 µM in IC50? Cn1cnc2cc(Oc3ccc(Nc4ncnc5cnc(N6C[C@@H]7[C@@H](C#N)[C@@H]7C6)nc45)cc3Cl)ccc21
RESULT: rule not met

QUERY: Strictly below 3 µM in IC50? Cc1cc(Nc2ncnc3cnc(N4CCO[C@@H](C)C4)nc23)ccc1Oc1ccc2c(c1)ncn2C.O=C(O)C(F)(F)F [Example 74, 2,2,2-trifluoroacetate]
RESULT: rule not met

QUERY: Strictly below 3 µM in IC50? Cc1cc(Nc2ncnc3cnc(N4CCC[C@H]4C(C)(C)O)nc23)ccc1Oc1ccc2c(c1)ncn2C
RESULT: rule not met

QUERY: Strictly below 3 µM in IC50? Cn1cnc2cc(Oc3ccc(Nc4ncnc5cnc(N6C[C@@H]7C[C@H]6C[C@H]7O)nc45)cc3Cl)ccc21
RESULT: rule not met

QUERY: Strictly below 3 µM in IC50? O[C@H]1C[C@@H]2C[C@H]1CN2c1ncc2ncnc(Nc3ccc(Oc4ccn5ncnc5c4)c(Cl)c3)c2n1
RESULT: rule met

Consider now this further compound.
QUERY: Strictly below 3 µM in IC50? Cc1c(Oc2ccn3ncnc3c2)ccc(Nc2ncnc3cnc(N4CC[C@H]4C(C)(C)O)nc23)c1F
RESULT: rule not met

* * *

Listing of entries alongside the reported pIC50.
# test target: ErbB2 with Exon 20 YVMA insertion (HER2-YVMA) (Homo sapiens (Human), UniProt P04626, INS775YVMA)
# Sequence (P04626 other isoform, or with tags, fused parts or gaps ins YVMA behind 775): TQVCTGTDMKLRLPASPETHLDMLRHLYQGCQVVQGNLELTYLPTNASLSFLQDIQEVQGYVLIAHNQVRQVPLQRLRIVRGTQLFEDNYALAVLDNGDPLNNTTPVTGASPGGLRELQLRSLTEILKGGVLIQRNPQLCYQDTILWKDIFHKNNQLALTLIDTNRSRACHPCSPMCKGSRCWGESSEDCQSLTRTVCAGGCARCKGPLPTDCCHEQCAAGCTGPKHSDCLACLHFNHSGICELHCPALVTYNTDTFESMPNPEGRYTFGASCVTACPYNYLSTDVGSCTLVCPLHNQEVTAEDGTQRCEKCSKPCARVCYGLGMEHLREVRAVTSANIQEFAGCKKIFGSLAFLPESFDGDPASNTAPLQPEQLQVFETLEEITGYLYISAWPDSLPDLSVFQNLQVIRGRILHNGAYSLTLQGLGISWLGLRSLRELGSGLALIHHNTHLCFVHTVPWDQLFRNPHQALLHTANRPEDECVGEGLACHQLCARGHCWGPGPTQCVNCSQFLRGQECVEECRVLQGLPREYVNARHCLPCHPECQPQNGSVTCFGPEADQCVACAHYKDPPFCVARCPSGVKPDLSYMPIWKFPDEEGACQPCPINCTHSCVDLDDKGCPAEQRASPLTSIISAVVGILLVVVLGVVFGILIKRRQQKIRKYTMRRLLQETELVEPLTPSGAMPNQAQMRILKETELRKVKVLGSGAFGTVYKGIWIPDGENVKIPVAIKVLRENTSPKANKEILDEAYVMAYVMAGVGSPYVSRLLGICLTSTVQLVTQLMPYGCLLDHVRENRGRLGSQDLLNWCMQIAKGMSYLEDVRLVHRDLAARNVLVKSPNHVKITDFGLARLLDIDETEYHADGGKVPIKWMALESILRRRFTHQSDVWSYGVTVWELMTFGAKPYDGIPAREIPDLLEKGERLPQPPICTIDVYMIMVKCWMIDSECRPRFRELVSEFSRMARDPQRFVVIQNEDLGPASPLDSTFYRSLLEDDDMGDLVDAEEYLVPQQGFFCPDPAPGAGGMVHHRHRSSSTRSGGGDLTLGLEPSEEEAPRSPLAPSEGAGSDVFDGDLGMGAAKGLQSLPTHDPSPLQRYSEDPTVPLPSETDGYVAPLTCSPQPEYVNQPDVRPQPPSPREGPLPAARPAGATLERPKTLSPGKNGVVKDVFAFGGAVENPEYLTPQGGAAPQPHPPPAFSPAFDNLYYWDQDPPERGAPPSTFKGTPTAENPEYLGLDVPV
# protocol details: Cellular phosphorylation assay, constitutive ErbB2 phosphorylation (Y1196) in engineered NIH 3T3 cells, Assay 4
Please express pIC50 as -log10 of the molar concentration.

Note to self: pIC50 recorded for Cc1cc(Nc2ncnc3cnc(NCC(F)F)nc23)ccc1Oc1ccc2c(c1)ncn2C was 8.18

Note to self: pIC50 recorded for Cc1cc(Nc2ncnc3cnc(N4C[C@@H]5CC[C@H]4CO5)nc23)ccc1Oc1ccc2c(c1)ncn2C was 7.37

Note to self: pIC50 recorded for Cc1cc(Nc2ncnc3cnc(N4CC5(C4)CC(O)(C(F)F)C5)nc23)ccc1Oc1ccc2c(c1)ncn2C was 7.57

Note to self: pIC50 recorded for Cc1cc(Nc2ncnc3cnc(NC(C)C)nc23)ccc1Oc1ccc2c(c1)ncn2C was 7.66

Note to self: pIC50 recorded for Cc1cc(Nc2ncnc3cnc(N[C@@H]4CCOC4)nc23)ccc1Oc1ccc2c(c1)ncn2C was 7.74

Note to self: pIC50 recorded for Cc1cc(Nc2ncnc3cnc(OCC4(F)CN(C)C4)nc23)ccc1Oc1ccc2c(c1)ncn2C was 6.88

Note to self: pIC50 recorded for Clc1cc(Nc2ncnc3cnc(N4CCC4)nc23)ccc1Oc1ccn2ncnc2c1 was 6.72

Note to self: pIC50 recorded for Cc1cc(Nc2ncnc3cnc(O[C@@H]4CNC[C@H](F)C4)nc23)ccc1Oc1ccc2c(c1)ncn2C was 7.39

Note to self: pIC50 recorded for Cc1cc(Nc2ncnc3cnc(N4CC5CC4CO5)nc23)ccc1Oc1ccc2c(c1)ncn2C.O=C(O)C(F)(F)F (stereo not drawn) [Example 77, 2,2,2-trifluoroacetate] was 7.76

Note to self: pIC50 recorded for Cc1cc(Nc2ncnc3cnc(N4CC[C@H](C)C4=O)nc23)ccc1Oc1ccc2c(c1)ncn2C was 7.26

Shifting focus to the molecule that follows.
Note to self: pIC50 recorded for Cc1cc(Nc2ncnc3cnc(N4CC[C@@H](C(C)(C)O)C4)nc23)ccc1Oc1ccc2c(c1)ncn2C was 8.02

* * *

# test target: ErbB2 WT (Homo sapiens (Human))
# Sequence (P04626 23-1255): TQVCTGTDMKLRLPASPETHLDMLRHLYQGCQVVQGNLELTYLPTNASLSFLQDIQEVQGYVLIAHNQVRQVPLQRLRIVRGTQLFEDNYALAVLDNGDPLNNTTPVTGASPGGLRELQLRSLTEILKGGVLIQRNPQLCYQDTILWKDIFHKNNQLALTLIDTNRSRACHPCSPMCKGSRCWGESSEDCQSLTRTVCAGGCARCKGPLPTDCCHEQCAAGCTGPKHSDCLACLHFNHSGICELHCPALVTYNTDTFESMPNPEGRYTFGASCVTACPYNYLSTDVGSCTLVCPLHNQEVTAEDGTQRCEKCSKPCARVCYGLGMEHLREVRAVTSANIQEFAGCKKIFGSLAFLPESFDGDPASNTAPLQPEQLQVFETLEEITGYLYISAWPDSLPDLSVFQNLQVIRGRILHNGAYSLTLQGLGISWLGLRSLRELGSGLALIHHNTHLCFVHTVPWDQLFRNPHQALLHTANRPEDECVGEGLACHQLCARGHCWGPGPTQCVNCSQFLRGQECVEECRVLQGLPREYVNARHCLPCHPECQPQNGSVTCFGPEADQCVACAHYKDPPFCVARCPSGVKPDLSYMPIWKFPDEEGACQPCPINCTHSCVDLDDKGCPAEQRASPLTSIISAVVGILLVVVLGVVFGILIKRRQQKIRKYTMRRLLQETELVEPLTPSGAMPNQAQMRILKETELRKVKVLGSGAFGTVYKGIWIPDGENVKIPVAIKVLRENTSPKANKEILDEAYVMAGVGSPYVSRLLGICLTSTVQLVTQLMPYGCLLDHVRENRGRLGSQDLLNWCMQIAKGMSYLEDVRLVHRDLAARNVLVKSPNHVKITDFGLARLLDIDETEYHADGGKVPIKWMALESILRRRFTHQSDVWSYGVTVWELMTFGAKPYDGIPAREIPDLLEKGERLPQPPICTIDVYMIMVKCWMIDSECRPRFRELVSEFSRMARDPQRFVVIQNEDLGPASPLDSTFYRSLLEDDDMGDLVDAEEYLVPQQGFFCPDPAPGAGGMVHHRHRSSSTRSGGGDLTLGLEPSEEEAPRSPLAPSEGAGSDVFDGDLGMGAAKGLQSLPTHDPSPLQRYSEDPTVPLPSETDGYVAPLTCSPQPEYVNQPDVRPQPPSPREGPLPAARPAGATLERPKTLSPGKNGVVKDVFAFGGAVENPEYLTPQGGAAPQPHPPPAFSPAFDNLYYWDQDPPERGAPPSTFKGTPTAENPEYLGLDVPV
pIC50: −log10 of the molar value.
# label = t if pIC50 >= 7 else f

Solved cases (5 shown):
QUERY: Say whether Cc1cc(Nc2ncnc3cnc(N4CC[C@H](C(F)F)C4)nc23)ccc1Oc1ccn2ncnc2c1 [Example 359] shows pIC50 of 7 or more.
RESULT: t

QUERY: Say whether C[C@H]1CN(c2ncc3ncnc(Nc4ccc(Oc5ccc6c(c5)ncn6C)c(Cl)c4)c3n2)CCO1 [Example 450] shows pIC50 of 7 or more.
RESULT: t

QUERY: Say whether COC[C@H](O)CN(C)c1ncc2ncnc(Nc3ccc(Oc4ccn5ncnc5c4)c(Cl)c3)c2n1 [Example 325] shows pIC50 of 7 or more.
RESULT: t

QUERY: Say whether Cc1cc(Nc2ncnc3cnc(N4C[C@@H](C)O[C@@H](C)C4)nc23)ccc1Oc1ccc2c(c1)ncn2C [Example 25] shows pIC50 of 7 or more.
RESULT: f

QUERY: Say whether Cn1cnc2cc(Oc3ccc(Nc4ncnc5cnc(N6CCOCC6)nc45)cc3Cl)ccc21 [Example 81, 2,2,2-trifluoroacetate] shows pIC50 of 7 or more.
RESULT: f

Consider now this further compound.
QUERY: Say whether CCCOc1ncc2ncnc(Nc3ccc(Oc4ccc5c(c4)ncn5C)c(C)c3)c2n1 [Example 221] shows pIC50 of 7 or more.
RESULT: f

* * *

# test target: UniProtKB P00533
Define the label as rule met when IC50 is strictly less than 4 µM and as rule not met in all remaining cases.

QUERY: Strictly below 4 µM in IC50? Cc1cc(Nc2ncnc3cnc(N4CCC(C)(O)CC4)nc23)ccc1Oc1ccc2c(c1)ncn2C
RESULT: rule not met

QUERY: Strictly below 4 µM in IC50? Cc1cc(Nc2ncnc3cnc(N4CC[C@H]4C(C)(C)O)nc23)ccc1Oc1ccn2ncnc2c1
RESULT: rule not met

QUERY: Strictly below 4 µM in IC50? CC1(C)CN(c2ncc3ncnc(Nc4ccc(Oc5ccn6ncnc6c5)c(Cl)c4)c3n2)CCO1
RESULT: rule not met

QUERY: Strictly below 4 µM in IC50? Cc1cc(Nc2ncnc3cnc(NCc4cnn(C)c4C)nc23)ccc1Oc1ccc2c(c1)ncn2C
RESULT: rule not met

QUERY: Strictly below 4 µM in IC50? Cc1cc(Nc2ncnc3cnc(N4C5COCC4C5)nc23)ccc1Oc1ccc2c(c1)ncn2C
RESULT: rule not met

QUERY: Strictly below 4 µM in IC50? Clc1cc(Nc2ncnc3cnc(N4CC[C@@]5(CCOC5)C4)nc23)ccc1Oc1ccn2ncnc2c1
RESULT: rule not met

QUERY: Strictly below 4 µM in IC50? Cc1cc(Nc2ncnc3cnc(N(C)C)nc23)ccc1Oc1ccc2csnc2c1 [Example 49, 2,2,2-trifluoroacetate]
RESULT: rule met

QUERY: Strictly below 4 µM in IC50? Cc1cc(Nc2ncnc3cnc(N(C)[C@@H]4CN(C)C[C@@H]4F)nc23)ccc1Oc1ccc2c(c1)ncn2C
RESULT: rule met

QUERY: Strictly below 4 µM in IC50? Cc1cc(Nc2ncnc3cnc(N(C)c4cnn(C)c4)nc23)ccc1Oc1ccc2c(c1)ncn2C
RESULT: rule not met

QUERY: Strictly below 4 µM in IC50? Cc1cc(Nc2ncnc3cnc(O[C@H]4CNCC[C@H]4F)nc23)ccc1Oc1ccc2c(c1)ncn2C
RESULT: rule not met

QUERY: Strictly below 4 µM in IC50? Cc1cc(Nc2ncnc3cnc(N4CCC[C@](C)(O)C4)nc23)ccc1Oc1ccc2c(c1)ncn2C
RESULT: rule not met

QUERY: Strictly below 4 µM in IC50? Cc1cc(Nc2ncnc3cnc(N4CCCCC4)nc23)ccc1Oc1ccc2c(c1)ncn2C
RESULT: rule not met

QUERY: Strictly below 4 µM in IC50? Cn1cnc2cc(Oc3ccc(Nc4ncnc5cnc(N6CCC7COCC76)nc45)cc3Cl)ccc21 (stereo not shown)
RESULT: rule not met

* * *

# test target: ErbB2 insYVMA (HER2-YVMA, SEQ ID NO: 2) (Homo sapiens, UniProt P04626, INS775YVMA/P1170A)
# Sequence (P04626 with tags, fused parts or gaps INS775YVMA/P1170A limits assumed): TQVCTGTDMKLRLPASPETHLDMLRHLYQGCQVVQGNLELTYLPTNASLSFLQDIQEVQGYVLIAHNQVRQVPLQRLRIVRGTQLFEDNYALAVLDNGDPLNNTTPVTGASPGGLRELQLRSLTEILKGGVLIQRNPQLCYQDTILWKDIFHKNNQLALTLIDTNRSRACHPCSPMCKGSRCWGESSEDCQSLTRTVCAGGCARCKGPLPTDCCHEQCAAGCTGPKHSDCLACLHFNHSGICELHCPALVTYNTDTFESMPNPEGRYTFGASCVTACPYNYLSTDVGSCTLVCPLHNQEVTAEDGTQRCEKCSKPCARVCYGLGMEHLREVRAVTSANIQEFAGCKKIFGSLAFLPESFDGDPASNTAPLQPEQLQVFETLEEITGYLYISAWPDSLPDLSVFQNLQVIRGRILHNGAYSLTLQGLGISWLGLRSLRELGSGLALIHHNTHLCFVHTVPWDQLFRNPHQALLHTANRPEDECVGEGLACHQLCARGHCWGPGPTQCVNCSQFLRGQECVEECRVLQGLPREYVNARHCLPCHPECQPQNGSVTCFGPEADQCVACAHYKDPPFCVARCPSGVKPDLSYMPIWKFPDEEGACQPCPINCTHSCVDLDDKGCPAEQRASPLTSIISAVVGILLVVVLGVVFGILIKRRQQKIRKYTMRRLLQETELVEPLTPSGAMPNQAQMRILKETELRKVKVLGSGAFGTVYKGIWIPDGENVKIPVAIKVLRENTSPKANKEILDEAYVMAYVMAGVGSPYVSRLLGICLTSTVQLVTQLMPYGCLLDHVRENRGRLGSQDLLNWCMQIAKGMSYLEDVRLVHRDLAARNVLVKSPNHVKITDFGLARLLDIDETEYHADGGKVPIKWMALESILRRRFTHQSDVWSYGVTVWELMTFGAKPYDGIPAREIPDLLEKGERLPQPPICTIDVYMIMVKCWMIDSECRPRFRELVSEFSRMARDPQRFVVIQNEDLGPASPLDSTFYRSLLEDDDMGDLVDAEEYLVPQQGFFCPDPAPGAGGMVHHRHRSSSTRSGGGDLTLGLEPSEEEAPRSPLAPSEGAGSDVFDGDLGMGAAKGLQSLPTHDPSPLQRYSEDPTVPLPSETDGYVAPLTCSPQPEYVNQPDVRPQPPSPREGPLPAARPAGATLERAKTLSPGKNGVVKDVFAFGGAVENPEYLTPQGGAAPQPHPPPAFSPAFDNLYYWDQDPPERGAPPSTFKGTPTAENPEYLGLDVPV
# protocol details: biochemical
# measurement conditions: ErbB2 insYVMA enzyme assay; read-out: Assay 1 IC50
readout label: IC50 (nM)
# unit: nM | format: bare number

Solved entries (count: 3):
Note to self: IC50 recorded for Cc1cc(Nc2ncnc3cnc(N4CC[C@@H](C(F)F)C4)nc23)ccc1Oc1ccn2ncnc2c1 was 8.7

Note to self: IC50 recorded for Clc1cc(Nc2ncnc3cnc(N4CCC45COC5)nc23)ccc1Oc1ccn2ncnc2c1 was 5.8

Note to self: IC50 recorded for Cc1cc(Nc2ncnc3cnc(N4CCOC(C(F)F)C4)nc23)ccc1Oc1ccc2c(c1)ncn2C (stereo not shown) was 81.5

Shifting focus to the compound that follows.
Note to self: IC50 recorded for Cc1cc(Nc2ncnc3cnc(N4CC[C@@H](CC#N)C4)nc23)ccc1Oc1ccc2c(c1)ncn2C was 27.7

Reference for the values: patent US11834453B2
